target: purified codon-optimized nanoKAZ domain protein (Oplophorus gracilirostris, UniProt Q9GV45, A31E/A60N/A81I/F95D/I117V/K70R/L54V/L99Q/M102K/N193R/P142E/Q151K/Q38R/Q45L/V71I/Y165I); construct: histidine tag (6 His) (N, cleaved yes); ZZ domain (N, cleaved yes); made in house; host or cells: Escherichia coli BL21; assay: Substrate specificity of purified nanoKAZ; format: biochemical; details: purified nanoKAZ 0.03 μg, 1 μg substrate, coelenterazine = 1.0
Sequence (Q9GV45 other isoform, or with tags, fused parts or gaps with the stated changes): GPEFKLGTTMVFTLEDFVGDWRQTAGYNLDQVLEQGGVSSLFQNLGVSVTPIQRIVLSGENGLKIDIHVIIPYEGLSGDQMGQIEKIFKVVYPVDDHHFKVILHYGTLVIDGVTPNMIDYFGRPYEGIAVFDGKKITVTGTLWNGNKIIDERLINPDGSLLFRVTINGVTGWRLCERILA
property measured: Relative luminescence activity integrated (1 min)
Lab note: jot down the number only; don't add units.

O=c1c(Cc2cccc(O)c2)nc2c(Cc3ccccc3)[nH]c(-c3ccc(O)cc3)cn1-2 ... 0.9
COc1ccc(Cc2nc3c(Cc4ccccc4)[nH]c(-c4ccc(O)cc4)cn-3c2=O)cc1 ... 3.4
Oc1ccc(Cc2nc3c(Cc4ccccc4)nc(-c4ccc(O)cc4)cn3c2O)cc1 ... 1.0
Oc1ccc(-c2cn3c(O)c(Cc4ccccc4)nc3c(Cc3ccccc3)n2)cc1 ... 12.5
Cc1cccc(Cc2nc3c(Cc4ccccc4)[nH]c(-c4ccc(O)cc4)cn-3c2=O)c1 ... 4.2
COc1cccc(Cc2nc3c(Cc4ccccc4)[nH]c(-c4ccc(O)cc4)cn-3c2=O)c1 ... 6.6
O=c1c(Cc2ccco2)nc2c(Cc3ccccc3)[nH]c(-c3ccccc3)cn1-2 ... 5.5
O=c1c(Cc2ccc(C(F)(F)F)cc2)nc2c(Cc3ccccc3)[nH]c(-c3ccc(O)cc3)cn1-2 ... 1.4

Alright, here's another compound for you.
Q. Field request: Relative luminescence activity integrated (1 min) | item: `Cc1ccc(Cc2nc3c(Cc4ccccc4)[nH]c(-c4ccc(O)cc4)cn-3c2=O)cc1`
A. 1.3

###

target: purified nanoKAZ (Oplophorus gracilirostris, UniProt Q9GV45, A31E/A60N/A81I/F95D/I117V/K70R/L54V/L99Q/M102K/N193R/P142E/Q151K/Q38R/Q45L/V71I/Y165I); construct: histidine tag (6 His) (N, cleaved yes); ZZ domain (N, cleaved yes); made in house; host or cells: Escherichia coli BL21; test: Emission spectra by purified nanoKAZ using coelenterazine analogues; assay type: biochemical; conditions: purified nanoKAZ 3 μg, substrate 5 μg, 22-25° C.
Sequence (Q9GV45 other isoform, or with tags, fused parts or gaps with the stated changes): as above
Maximum wavelength λmax listing for selected molecules.
Please give a number only; it is taken to be in nm.

Worked examples follow.
Cc1ccc(Cc2nc3c(Cc4ccccc4)[nH]c(-c4ccc(O)cc4)cn-3c2=O)cc1 ... 460
Oc1ccc(Cc2nc3c(Cc4ccccc4)nc(-c4ccc(O)cc4)cn3c2O)cc1 ... 457
O=c1c(Cc2ccc(C(F)(F)F)cc2)nc2c(Cc3ccccc3)[nH]c(-c3ccc(O)cc3)cn1-2 ... 454
COc1cccc(Cc2nc3c(Cc4ccccc4)[nH]c(-c4ccc(O)cc4)cn-3c2=O)c1 ... 458
COc1ccc(Cc2nc3c(Cc4ccccc4)[nH]c(-c4ccc(O)cc4)cn-3c2=O)cc1 ... 458
Cc1cccc(Cc2nc3c(Cc4ccccc4)[nH]c(-c4ccc(O)cc4)cn-3c2=O)c1 ... 458

Q. Fill in: Maximum wavelength λmax of `Oc1ccc(-c2cn3c(O)c(Cc4ccccc4)nc3c(Cc3ccccc3)n2)cc1` is ___
A. 455

Q. Which value of Maximum wavelength λmax has been reported for `O=c1c(Cc2ccco2)nc2c(Cc3ccccc3)[nH]c(-c3ccccc3)cn1-2` in the records?
A. 452

Q. Which Maximum wavelength λmax reading was recorded for the molecule `O=c1c(Cc2cccc(O)c2)nc2c(Cc3ccccc3)[nH]c(-c3ccc(O)cc3)cn1-2` ?
A. 460

The origin of these recorded values is patent US10006009B2.
